Target: Sheep Seminal Vesicle Cyclooxygenase (Ovis aries)
Sequence (P05979 25-600): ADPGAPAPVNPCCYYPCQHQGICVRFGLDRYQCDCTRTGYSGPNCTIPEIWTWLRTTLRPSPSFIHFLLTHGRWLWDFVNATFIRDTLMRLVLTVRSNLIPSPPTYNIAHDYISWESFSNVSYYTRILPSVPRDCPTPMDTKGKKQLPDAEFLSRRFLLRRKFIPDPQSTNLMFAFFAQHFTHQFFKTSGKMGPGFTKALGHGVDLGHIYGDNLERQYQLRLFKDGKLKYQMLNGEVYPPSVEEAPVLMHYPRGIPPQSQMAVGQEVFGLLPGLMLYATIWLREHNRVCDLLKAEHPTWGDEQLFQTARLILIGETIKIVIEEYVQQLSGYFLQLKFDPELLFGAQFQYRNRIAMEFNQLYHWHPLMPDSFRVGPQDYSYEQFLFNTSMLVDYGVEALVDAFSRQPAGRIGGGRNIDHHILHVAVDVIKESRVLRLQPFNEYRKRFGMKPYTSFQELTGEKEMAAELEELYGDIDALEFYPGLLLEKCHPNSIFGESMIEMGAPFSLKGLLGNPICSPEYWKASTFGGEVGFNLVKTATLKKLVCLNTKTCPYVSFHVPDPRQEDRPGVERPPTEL
The threshold is 2000 nM. Values of IC50 beneath it are tagged 1; values meeting or exceeding it are tagged -1.

Molecule | System Name | Category Label
COc1ccc(-n2nc(CCCOC(=O)NO)cc2-c2ccc(Cl)cc2)cc1 [3-A] | Sheep Seminal Vesicle Cyclooxygenase (Ovis aries) | -1
COc1ccc(-n2nc(CCCOC(=O)N(O)C(C)C)c(Cl)c2-c2ccc(Cl)cc2)cc1 [3-E] | Sheep Seminal Vesicle Cyclooxygenase (Ovis aries) | -1
COc1ccc(-n2nc(COC(=O)N(C)O)c(Cl)c2-c2ccc(Cl)cc2)cc1 [1-H] | Sheep Seminal Vesicle Cyclooxygenase (Ovis aries) | 1
COc1ccc(-n2nc(COC(=O)NO)c(Br)c2-c2ccc(C)cc2)cc1 [1-M] | Sheep Seminal Vesicle Cyclooxygenase (Ovis aries) | -1
COc1ccc(-n2nc(COC(=O)N(C)O)c(Br)c2-c2ccc(C)cc2)cc1 [1-N] | Sheep Seminal Vesicle Cyclooxygenase (Ovis aries) | 1
COc1ccc(-n2nc(COC(=O)NO)cc2-c2ccc(Cl)cc2)cc1 [1-A] | Sheep Seminal Vesicle Cyclooxygenase (Ovis aries) | -1
COc1ccc(-n2nc(CCCOC(=O)N(O)C(C)C)cc2-c2ccc(Cl)cc2)cc1 [3-C] | Sheep Seminal Vesicle Cyclooxygenase (Ovis aries) | 1
COc1ccc(-n2nc(COC(=O)NO)c(Br)c2-c2ccc(Cl)cc2)cc1 [1-D] | Sheep Seminal Vesicle Cyclooxygenase (Ovis aries) | -1
COc1ccc(-n2nc(CCOC(=O)N(O)C(C)C)cc2-c2ccc(Cl)cc2)cc1 [2-B] | Sheep Seminal Vesicle Cyclooxygenase (Ovis aries) | 1

---

Target: RBL-1 Cell Cyclooxygenase (Rattus norvegicus)
Construct: the supernatant was saved as the source of enzymes; endogenous in cells; host or cells: RBL-1 (rat basophilic leukemia cells), 10,000×g supernatant of homogenate
Sequence (Q63921 27-602): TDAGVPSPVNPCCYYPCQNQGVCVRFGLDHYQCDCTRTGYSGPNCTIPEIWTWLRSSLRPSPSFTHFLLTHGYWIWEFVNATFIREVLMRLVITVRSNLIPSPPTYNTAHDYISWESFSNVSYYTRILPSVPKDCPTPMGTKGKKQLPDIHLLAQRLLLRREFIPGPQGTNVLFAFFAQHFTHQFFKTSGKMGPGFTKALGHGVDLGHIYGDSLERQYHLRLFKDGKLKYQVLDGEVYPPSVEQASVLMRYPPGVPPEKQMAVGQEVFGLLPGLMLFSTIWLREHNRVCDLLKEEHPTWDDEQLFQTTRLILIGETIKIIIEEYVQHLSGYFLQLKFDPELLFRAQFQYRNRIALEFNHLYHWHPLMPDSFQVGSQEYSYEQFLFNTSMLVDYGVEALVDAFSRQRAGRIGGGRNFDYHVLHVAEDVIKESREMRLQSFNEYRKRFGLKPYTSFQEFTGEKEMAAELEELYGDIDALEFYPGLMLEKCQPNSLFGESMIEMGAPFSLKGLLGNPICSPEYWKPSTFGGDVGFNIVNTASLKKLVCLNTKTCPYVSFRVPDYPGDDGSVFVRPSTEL
Assay: Procedure II: cyclooxygenase inhibition in disrupted RBL-1 cells (supernatant as enzyme source)
Format: biochemical

Compound | Unit Info | % INHIBITION CO (Procedure II)
COc1ccc(-n2nc(COC(=O)NO)c(Cl)c2-c2ccc(Cl)cc2)cc1 [1-G] | % | 18
COc1ccc(-n2nc(CCOC(=O)N(C)O)c(Br)c2-c2ccc(Cl)cc2)cc1 [2-E] | % | 5.5
COc1ccc(-n2nc(CCOC(=O)N(O)C(C)C)cc2-c2ccc(Cl)cc2)cc1 [2-B] | % | 55
COc1ccc(-n2nc(COC(=O)N(O)C(C)C)cc2-c2ccc(Cl)cc2)cc1 [1-C] | % | 80

---

Molecular target: RBL-1 Cell 5-Lipoxygenase (Rattus norvegicus)
Construct: the supernatant was saved as the source of enzymes; endogenous in cells; host or cells: RBL-1 (rat basophilic leukemia cells), 10,000×g supernatant of homogenate
Sequence (P12527 whole entry): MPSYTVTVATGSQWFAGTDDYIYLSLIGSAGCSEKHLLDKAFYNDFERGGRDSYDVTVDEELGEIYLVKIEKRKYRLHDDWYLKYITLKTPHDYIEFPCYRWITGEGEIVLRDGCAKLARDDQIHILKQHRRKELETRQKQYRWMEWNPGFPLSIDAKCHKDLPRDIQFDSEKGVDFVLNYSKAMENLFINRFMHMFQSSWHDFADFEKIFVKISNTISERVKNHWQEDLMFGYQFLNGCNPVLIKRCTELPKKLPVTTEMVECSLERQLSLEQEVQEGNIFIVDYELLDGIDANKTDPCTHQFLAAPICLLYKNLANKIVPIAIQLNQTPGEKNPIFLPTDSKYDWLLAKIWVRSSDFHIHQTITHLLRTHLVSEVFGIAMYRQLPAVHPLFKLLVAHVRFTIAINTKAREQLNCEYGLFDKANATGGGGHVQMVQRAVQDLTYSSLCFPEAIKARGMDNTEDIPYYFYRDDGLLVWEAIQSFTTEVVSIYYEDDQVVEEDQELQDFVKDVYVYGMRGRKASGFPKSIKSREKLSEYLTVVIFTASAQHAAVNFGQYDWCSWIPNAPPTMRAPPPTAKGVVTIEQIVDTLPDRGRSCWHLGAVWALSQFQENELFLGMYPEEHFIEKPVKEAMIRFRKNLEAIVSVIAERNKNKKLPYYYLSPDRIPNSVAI
Assay: Procedure II: 5-lipoxygenase inhibition in disrupted RBL-1 cells (supernatant as enzyme source)
Assay type: biochemical
The entries below are paired with their reported % INHIBITION 5-LO (Procedure II).

Structure String | Unit Info | % INHIBITION 5-LO (Procedure II)
COc1ccc(-n2nc(CCOC(=O)N(C)O)c(Cl)c2-c2ccc(C)cc2)cc1 | % | 78
COc1ccc(-n2nc(COC(=O)NO)c(Cl)c2-c2ccc(C)cc2)cc1 | % | 30
COc1ccc(-n2nc(CCOC(=O)N(O)C(C)C)c(Cl)c2-c2ccc(Cl)cc2)cc1 | % | 70
COc1ccc(-n2nc(COC(=O)N(O)C(C)C)c(Cl)c2-c2ccc(C)cc2)cc1 | % | 87
COc1ccc(-n2nc(CCCOC(=O)N(O)C(C)C)c(Cl)c2-c2ccc(Cl)cc2)cc1 | % | 86
COc1ccc(-n2nc(COC(=O)N(O)C(C)C)cc2-c2ccc(C)cc2)cc1 | % | 86
COc1ccc(-n2nc(CCOC(=O)N(C)O)c(Cl)c2-c2ccc(Cl)cc2)cc1 | % | 69
COc1ccc(-n2nc(CCOC(=O)N(C)O)c(Br)c2-c2ccc(C)cc2)cc1 | % | 75
COc1ccc(-n2nc(CCOC(=O)N(C)O)cc2-c2ccc(Cl)cc2)cc1 | % | 82

---

Molecular target: Sheep Seminal Vesicle Cyclooxygenase (Ovis aries)
Construct: purchased Biomol (Plymouth Meeting, Pa.); host or cells: sheep seminal vesicle
Test: Procedure I: sheep seminal vesicle (SSV) cyclooxygenase inhibition
Type: biochemical
Conditions: dose 3 MPK unless otherwise stated (so in the source)
Lab note: anything with % INHIB. CO (Procedure I) at or over 60% counts as TRUE; the rest go in FALSE.

Structure String | System Name | Category Label
COc1ccc(-n2nc(COC(=O)N(C)O)c(Cl)c2-c2ccc(C)cc2)cc1 | Sheep Seminal Vesicle Cyclooxygenase (Ovis aries) | TRUE
COc1ccc(-n2nc(COC(=O)NO)cc2-c2ccc(Cl)cc2)cc1 | Sheep Seminal Vesicle Cyclooxygenase (Ovis aries) | FALSE
COc1ccc(-n2nc(CCOC(=O)N(C)O)cc2-c2ccc(Cl)cc2)cc1 | Sheep Seminal Vesicle Cyclooxygenase (Ovis aries) | TRUE
COc1ccc(-n2nc(CCCOC(=O)N(O)C(C)C)c(Cl)c2-c2ccc(Cl)cc2)cc1 | Sheep Seminal Vesicle Cyclooxygenase (Ovis aries) | FALSE
COc1ccc(-n2nc(CCOC(=O)N(C)O)c(Br)c2-c2ccc(C)cc2)cc1 | Sheep Seminal Vesicle Cyclooxygenase (Ovis aries) | FALSE
COc1ccc(-n2nc(CCOC(=O)N(O)C(C)C)c(Br)c2-c2ccc(Cl)cc2)cc1 | Sheep Seminal Vesicle Cyclooxygenase (Ovis aries) | FALSE
COc1ccc(-n2nc(COC(=O)N(O)C(C)C)c(Br)c2-c2ccc(Cl)cc2)cc1 | Sheep Seminal Vesicle Cyclooxygenase (Ovis aries) | FALSE
COc1ccc(-n2nc(COC(=O)NO)c(Br)c2-c2ccc(Cl)cc2)cc1 | Sheep Seminal Vesicle Cyclooxygenase (Ovis aries) | FALSE

---

Molecular target: CO in intact RBL-1 cells (Rattus norvegicus, UniProt Q63921)
Construct: 5-LO and CO in intact RBL-1 cells; endogenous in cells
Test: Procedure III: inhibition of CO in intact RBL-1 cells
Protocol: The ability to inhibit 5-LO and CO in intact RBL-1 cells was also evaluated. RBL-1 cells were maintained in culture in minimal essential medium (Bio*Whittaker, Walkersville, Md.), containing 12.5% fetal calf serum, 10 mg/mL streptomycin, 10 I.U./mL penicillin G, […] gentamycin and 2 mM L-glutamine (Bio*Whittaker, Walkersville, Md.). […] Radioactive areas corresponding to authentic 5-LO and CO products were quantitated by the Bioscan 2000 Imaging System. […]
pIC50: −log10 of the molar value.
The entries below are paired with their reported pIC50.

Structure String | System Name | pIC50
COc1ccc(-n2nc(CCCOC(=O)N(C)O)c(Br)c2-c2ccc(Cl)cc2)cc1 | CO in intact RBL-1 cells (Rattus norvegicus, UniProt Q63921) | 5.31
COc1ccc(-n2nc(CCOC(=O)N(O)C(C)C)c(Br)c2-c2ccc(Cl)cc2)cc1 | CO in intact RBL-1 cells (Rattus norvegicus, UniProt Q63921) | 5.62
COc1ccc(-n2nc(COC(=O)N(C)O)cc2-c2ccc(Cl)cc2)cc1 | CO in intact RBL-1 cells (Rattus norvegicus, UniProt Q63921) | 6.42
COc1ccc(-n2nc(CCOC(=O)NO)c(Br)c2-c2ccc(C)cc2)cc1 | CO in intact RBL-1 cells (Rattus norvegicus, UniProt Q63921) | 5.49
COc1ccc(-n2nc(COC(=O)NO)c(Cl)c2-c2ccc(C)cc2)cc1 | CO in intact RBL-1 cells (Rattus norvegicus, UniProt Q63921) | 5.60
COc1ccc(-n2nc(CCOC(=O)N(C)O)cc2-c2ccc(C)cc2)cc1 | CO in intact RBL-1 cells (Rattus norvegicus, UniProt Q63921) | 7.10
COc1ccc(-n2nc(CCOC(=O)N(C)O)c(Br)c2-c2ccc(C)cc2)cc1 | CO in intact RBL-1 cells (Rattus norvegicus, UniProt Q63921) | 5.74
COc1ccc(-n2nc(CCOC(=O)N(C)O)c(Br)c2-c2ccc(Cl)cc2)cc1 | CO in intact RBL-1 cells (Rattus norvegicus, UniProt Q63921) | 5.66
COc1ccc(-n2nc(COC(=O)N(O)C(C)C)cc2-c2ccc(C)cc2)cc1 | CO in intact RBL-1 cells (Rattus norvegicus, UniProt Q63921) | 7.70
